// reported selectivity ratio for each item listed
- method_summary: Selectivity index, ratio of IC50 for antimalarial activity against chloroquine sensitive Plasmodium falciparum D10 infected in human red blood cells to IC50 for cytotoxicity against mouse BMDM cells
- Format: toxicity, cell-based
- condition_description: read-out: Selectivity Index
API doc: respond with a numeric literal and nothing else, no unit.

INSERT INTO results (compound, measured_quantity, reported_value) VALUES
  ('CC(C)(C)c1ccc(-c2nnc(C3CC(Br)=NO3)o2)cc1 (configuration not stated)', 'selectivity ratio', 1140);

Alright, here's another compound for you.
## Input Give the measured selectivity ratio of CC(C)(C)c1ccc(-c2noc(C3CC(Br)=NO3)n2)cc1 (configuration not stated) .
## Output 12

---

- method_summary: Selectivity index, ratio of IC50 for antimalarial activity against chloroquine resistance Plasmodium falciparum W2 infected in human red blood cells to IC50 for Cytotoxicity against mouse BMDM cells
- Format: toxicity, cell-based
- condition_description: read-out: Selectivity Index
selectivity ratio overview
Answer as a number with no unit attached.

INSERT INTO assay_data (molecule, reported_value) VALUES
  ('CC(C)(C)c1ccc(-c2nnc(C3CC(Br)=NO3)o2)cc1 (configuration not stated)', 690);

Proceeding to the next molecule to report its selectivity ratio.
## Input So what does the record say about selectivity ratio for CC(C)(C)c1ccc(-c2noc(C3CC(Br)=NO3)n2)cc1 (configuration not stated) ?
## Output 11

---

- System: Leishmania tropica
- method_summary: Antileishmanial activity against Leishmania tropica (MHOM/SY/2012/ISS3130) promastigotes assessed as reduction in parasite viability at 60 uM measured after 72 hrs by MTT assay
- Format: functional, organism-based
Active and inactive are the calls of the source. The rule behind the calls is not given here.
measured_quantity: inhibition

Below, 4 compounds whose answers are already recorded.
INSERT INTO results (compound, assayed_target, reported_value) VALUES
  ('BrC1=NOC(c2nnc(-c3ccccc3)s2)C1 (stereo not given)', 'Leishmania tropica', 'inactive'),
  ('O=C(O)c1ccc(-c2noc(C3CC(Br)=NO3)n2)cc1 (stereo not given)', 'Leishmania tropica', 'inactive'),
  ('O=C(O)c1ccc(-c2noc(C3CC(Br)=NO3)n2)s1 (stereo not given)', 'Leishmania tropica', 'inactive'),
  ('BrC1=NOC(c2nc(-c3ccccc3)n[nH]2)C1 (stereo not given)', 'Leishmania tropica', 'inactive');

Lab note: next compound to report on.
## Input Could you share which inhibition value was measured for BrC1=NOC(c2nnc(-c3ccccc3)o2)C1 (stereo not given) ?
## Output inactive
